Test: viability gain of MRP-1-high H69AR cells under doxorubicin, pilot screen, MRP-1 activator project, CellTiter-Glo, duplicate (AID 807);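 further: compound pretreatment 18-22 h then 72 h combined with doxorubicin; 0% = doxorubicin alone and 100% = vehicle without doxorubicin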
Details: H69AR viability with doxorubicin, CellTiter-Glo luminescence; at 10 µM; active compounds read high
viability increase listing for selected compounds.
Express your answer in %, writing the number without its unit.

Lookup: Item COc1cc(C)c(S(=O)(=O)NCc2ccc3c(c2)OCO3)cc1C : provide viability increase
Found: 0.6

Lookup: State its viability increase for this compound: CN(C)c1nc2c(c(=O)[nH]c(=O)n2C)n1Cc1ccc(F)cc1
Found: -0.31

Lookup: Given Cn1nc(-c2ccc(Cl)cc2)c2cc(C(=O)N3CCN(c4ccccn4)CC3)sc21 , respond with its viability increase.
Found: -5.31

Lookup: # return recorded viability increase for input CCOC(=O)C1=C2N(C)c3ccccc3N2CCC1=O
Found: -3.21

Lookup: Name the recorded viability increase of the compound listed here: COc1ccc(C(=O)NCCn2ccc3ccccc32)cc1OC
Found: -3.48

Lookup: Give viability increase for the following compound: COC1=CC(=O)OC12CCCCC2
Found: -0.88

Lookup: Tell me its viability increase given COc1cc(/C=N/n2cnnc2)ccc1OCCOc1ccccc1 as the entry.
Found: -3.68

###

Assay: RAM signaling pathway blockade in yeast – S. cerevisiae, Pdr1DBD-CYC8 efflux-inhibited sensitized strain, primary screen (AID 1298);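 further: 0% = DMSO untreated cells without growth and 100% = 10 µM 1-NA-PP1 full growth; higher means more yeast growth rescued from 5-FOA killing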
Conditions: S. cerevisiae cbk1-as DSE1-URA3 strain, 5-FOA growth OD615, 2 d; at 50 µM; active compounds read high
Kind request: treat 5% as inclusive, so RAM network inhibition at 5% or higher is t, anything lower is f.

O=C(Cn1cc2c(n1)CCCC2)NC1CCCCCC1 :: f
COc1ccc(C2C(C(=O)N3CCCC3)c3cc(OC)c(OC)cc3C(=O)N2C)cc1OC (stereo unspecified) :: f
CN(C)c1cccc(NC(=O)Cc2ccc(F)cc2)c1 :: t
CCOC(=O)CSc1nccc(N(C)C)c1C#N :: f
C=CCNC(=O)COc1ccc(Br)cc1Cl :: t
CCC(C)NC(=O)CCS(=O)(=O)c1ccc2c(c1)n(C)c(=O)c(=O)n2C (stereo unspecified) :: f

Lookup: # check: RAM network inhibition of C=CCOc1cccc(C2c3c(oc4ccc(F)cc4c3=O)C(=O)N2CCCN2CCOCC2)c1 (stereo unspecified) is greater than or equal to 5%
Found: f

Lookup: Does RAM network inhibition meet or surpass 5% for Cn1c(=O)oc2cc(S(=O)(=O)N3CCC(C(=O)N4CCN(c5ccccc5)CC4)CC3)ccc21 ?
Found: t

Lookup: Given Cc1ccc(C(=O)N(Cc2nc(-c3ccc(C)cc3)no2)C(C)C)cc1 , state whether its RAM network inhibition is at least 5%.
Found: t

###

Assay: inhibitors of the yeast RAM network, pilot screen, dse1pr::URA3 reporter, 5-FOA selection (AID 869);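 further: 0% = DMSO wells with no growth and 100% = 10 µM 1-NA-PP1 with full growth; RAM network block rescues cells from 5-FOA so hits raise OD615 growth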
Settings: S. cerevisiae dse1pr::URA3 5-FOA growth, OD615, 2 d; at 10 µM; active compounds read high; strain carries analog-sensitive mutant Cbk1 kinase
Property Name: inhibition (%)
Your answer should be a plain number; it is taken to be in %.

Here's what some known entries look like.
CCOC(=O)C1=C(C)N(C)C(C)=C(C(=O)OCC)C1c1ccccn1 :: 1.98
COc1cc(NC(=O)c2cc(C(C)C)on2)cc(OC)c1OC :: -0.755
CCOC(=O)N1CCC(Nc2c(OCC)c(=O)c2=O)CC1 :: 1.31
Clc1ccc(-c2nnc(N3CCCC3)nn2)cc1 :: 0.995

Lookup: Quickly give me recorded inhibition for CCCOc1ccc(C2c3c(oc4cc(C)c(C)cc4c3=O)C(=O)N2CCCN2CCOCC2)cc1 (stereo not given)
Found: 0.075

Lookup: Identify measured inhibition corresponding to Cc1ccc(Cn2c(Sc3nnc(C)s3)nc3c2c(=O)[nH]c(=O)n3C)cc1
Found: 2.5
